System: c-Abl (mouse)
procedure summary: phosphorylation enrichment, bacterial display (enrichment ratio); higher = better substrate or ligand; peptides without Tyr show the background;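 also: 11-residue human phosphosite peptides and single-mutation variants displayed on the E. coli surface, counted by deep sequencing, each peptide's frequency after selection divided by its frequency in the unselected input library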;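 also: frequency after pTyr selection over input frequency; kinase dosed for 20-30% of maximal phosphorylation in three min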
# reported phosphorylation enrichment; entries follow
# output: bare number, no unit

Worked set:
phosphorylation enrichment on c-Abl (mouse) for KSEFAYEIFDK [MYOM2_Y1024_L1022F] is 0.746

Note to self: phosphorylation enrichment of EEQKKYFNAVK [SCN5A_Y1494_M1498V_YF] with c-Abl (mouse) was 0.742

Tested on c-Abl (mouse), the item LRFDVYGGENE [STOX1_Y610_E608D_YF] showed phosphorylation enrichment equal to 0.793

Value (phosphorylation enrichment, c-Abl (mouse)) for record PYYTSYPPSPD [GDAP2_Y491] = 1.67

Measured phosphorylation enrichment (c-Abl (mouse)), entry EPSVPYRGTVF [GLI3_Y104] : 0.534

Form field phosphorylation enrichment for item EYYENYIEELK [PARP4_Y218_F215Y] on c-Abl (mouse): 0.775

Known value: c-Abl (mouse) phosphorylation enrichment of the sequence KWLEQYTQAIE [LSP1_Y234_Q229K] equals 0.702

Short answer on c-Abl (mouse) for QEIATYRPLLE [KRT14_Y415_R417P] , phosphorylation enrichment: 0.922

Next:
Considering QADVIYVNTQL [MERTK_Y872] , its phosphorylation enrichment with c-Abl (mouse) was recorded as 1

Short answer on c-Abl (mouse) for QEGPEYWDRET [HLA-A_Y83_Q86R] , phosphorylation enrichment: 1.44

====

target: EPHB2 (UniProt P29323)
Sequence (P29323 whole entry, looked up): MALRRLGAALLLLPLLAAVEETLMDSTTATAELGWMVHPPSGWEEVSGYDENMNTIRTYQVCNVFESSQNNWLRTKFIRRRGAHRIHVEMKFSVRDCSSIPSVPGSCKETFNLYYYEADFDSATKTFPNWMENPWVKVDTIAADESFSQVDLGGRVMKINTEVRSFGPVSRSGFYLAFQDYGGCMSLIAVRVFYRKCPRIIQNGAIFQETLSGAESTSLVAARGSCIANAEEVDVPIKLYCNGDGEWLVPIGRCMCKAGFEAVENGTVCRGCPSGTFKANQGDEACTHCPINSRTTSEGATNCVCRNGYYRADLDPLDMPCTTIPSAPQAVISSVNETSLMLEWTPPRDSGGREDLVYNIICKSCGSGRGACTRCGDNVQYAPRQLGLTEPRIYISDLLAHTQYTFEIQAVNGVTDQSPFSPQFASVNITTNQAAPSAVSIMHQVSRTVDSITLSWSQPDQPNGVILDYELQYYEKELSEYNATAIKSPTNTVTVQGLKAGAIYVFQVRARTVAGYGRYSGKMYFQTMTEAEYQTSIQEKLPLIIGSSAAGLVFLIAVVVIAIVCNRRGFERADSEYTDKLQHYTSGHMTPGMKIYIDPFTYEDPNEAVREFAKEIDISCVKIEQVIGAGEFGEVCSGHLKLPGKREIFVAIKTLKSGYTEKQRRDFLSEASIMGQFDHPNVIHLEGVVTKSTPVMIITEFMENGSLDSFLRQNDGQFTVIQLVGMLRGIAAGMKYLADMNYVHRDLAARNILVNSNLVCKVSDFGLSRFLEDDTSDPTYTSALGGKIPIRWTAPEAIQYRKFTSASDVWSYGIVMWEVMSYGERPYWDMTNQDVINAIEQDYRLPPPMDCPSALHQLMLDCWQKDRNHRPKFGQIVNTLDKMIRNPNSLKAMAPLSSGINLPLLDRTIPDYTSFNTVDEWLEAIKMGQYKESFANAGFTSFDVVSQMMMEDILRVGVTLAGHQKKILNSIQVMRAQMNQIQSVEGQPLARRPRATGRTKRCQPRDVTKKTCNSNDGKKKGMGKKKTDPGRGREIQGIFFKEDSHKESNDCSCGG
procedure summary: phosphorylation enrichment, bacterial display (enrichment ratio); higher = better substrate or ligand; peptides without Tyr show the background
The entries below come with measured phosphorylation enrichment values attached.

Take a look at these entries with their results.
Memo: LTERGYSFTTK [ACTG1_Y198_T203K] , reported phosphorylation enrichment: 2.03

Per the records, this sequence ( FMLFQYLKQIE [RPAP3_Y569_D564Y_YF] ) has phosphorylation enrichment equal to 0.716

Measured phosphorylation enrichment, VTDGKYAFKPK [GTF2E2_Y137_I133T] : 0.262

// phosphorylation enrichment value for SIKDKYVTALF [KCNH2_Y611_YF] : 0.5

// GYGGGYGGVLT [KRT19_Y65_A60G] : phosphorylation enrichment value = 0.47

Entry SGDVQYRSSVR [FREM2_Y2158_T2153S] — recorded phosphorylation enrichment = 0.332

Measured phosphorylation enrichment, PEVRRCVLPLN [RPE65_Y368_Y368C] : 0.487

Lab note: measured phosphorylation enrichment of PESIMYWKFTT [NTRK3_Y744_R745W] was 1.22

New cases:
Field phosphorylation enrichment (entry FPLELYERVRI [PRKCG_Y312_M317I_YF] ) reads 1.1

The sequence SESSYYKSLNL [NGEF_Y289_A286S] showed phosphorylation enrichment equal to 0.57

So, IVWDSYTTNKV [GNB3_Y85] ? Its phosphorylation enrichment was 0.559

For record RILDVYIFLGP [GAA_Y340_G335R] the listed phosphorylation enrichment is 0.676

// phosphorylation enrichment value for YEEDSYVERSQ [RET_Y905_K907E] : 0.722

====

Test system: AncSZ
procedure summary: phosphorylation enrichment, bacterial display (enrichment ratio); higher = better substrate or ligand; peptides without Tyr show the background
Parameter threshold = 0.9. Response is true when phosphorylation enrichment meets or exceeds it, else false.

Study these solved cases before continuing.
In: Item GRTNIYNNKKD [SLC26A3_Y520_K521N] with phosphorylation enrichment of 0.9 or above?
Out: false

In: Determine whether measured phosphorylation enrichment meets or exceeds 0.9 for RLAQRYLIWEC [SCN5A_Y694]
Out: true

In: Please indicate if the recorded phosphorylation enrichment for LTNDRYVATLT [IL6ST_Y396_L397V] meets or exceeds 0.9.
Out: false

In: Decide: phosphorylation enrichment of LTERGYSFTTK [ACTG1_Y198_T203K] >= 0.9?
Out: true

In: Does phosphorylation enrichment meet or surpass 0.9 for LEGKEYRMSGE [KRT3_Y511_E509K] ?
Out: false

Next:
In: Reported phosphorylation enrichment reaches at least 0.9 for NIEPIYLNMLL [ATR_Y317_V316I] ?
Out: true

In: Tell me whether phosphorylation enrichment is at least 0.9 here: RIDPDYVGRVR [IGSF9_Y81]
Out: false
